# assayed_system: 5-hydroxytryptamine receptor 1A (Homo sapiens, UniProt P08908)
# Sequence (P08908 whole entry): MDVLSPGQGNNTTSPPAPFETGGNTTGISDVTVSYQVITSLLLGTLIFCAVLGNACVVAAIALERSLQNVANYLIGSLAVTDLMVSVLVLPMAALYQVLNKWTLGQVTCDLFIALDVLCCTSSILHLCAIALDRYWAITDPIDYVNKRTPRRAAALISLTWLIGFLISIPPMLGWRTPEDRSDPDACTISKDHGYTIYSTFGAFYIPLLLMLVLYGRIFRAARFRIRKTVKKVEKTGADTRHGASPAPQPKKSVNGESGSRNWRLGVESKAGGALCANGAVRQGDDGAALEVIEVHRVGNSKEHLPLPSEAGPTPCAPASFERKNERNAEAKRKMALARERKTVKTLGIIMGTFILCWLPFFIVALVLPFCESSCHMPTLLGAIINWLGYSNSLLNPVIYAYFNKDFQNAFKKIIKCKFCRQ
# assay_procedure: Agonist activity at human 5H1A receptor expressed in HEK293 cells incubated for 60 mins by Eu-cAMP tracer based LANCE ultra cAMP assay
# Format: functional, cell-based
# settings: read-out: EC50
attribute_measured: EC50 (nM)

# compound_structure, EC50, nM
measured = [
    ("CC(C)N(CCCN1CCN(c2ccccn2)CC1)C(=O)c1ccccc1", 22.8),
]

a = CCCN(CCCN1CCN(c2cccc(Cl)c2Cl)CC1)C(=O)c1ccccc1
b = O=C(c1ccccc1)N(CCCN1CCN(c2ccccn2)CC1)CC1CC1
c = O=C(CN1CCN(CCCc2c[nH]c3ccc(F)cc23)CC1)N(c1ccccc1)C1CCCCC1
Ordering criterion: EC50; begin with the maximum. Sort the labels as requested; that list is your answer.
a, b, c
(a: 452 nM, b: 24.9 nM, c: 7 nM)
